B1: MEF2-activating motif and SAP domain-containing transcriptional regulator, residues 170 to 204; numbered along this chain, Q6ZN01 (parent)
chain: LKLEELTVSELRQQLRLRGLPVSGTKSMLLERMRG

# Variants of: B1
# protocol_description: abundance fitness (aPCA) (normalised: wild type 0, dead -1); higher = more abundant; growth selection in yeast, the domain comes from the species named
# condition_summary: Homo sapiens
So basically: abundance fitness at -0.3 or higher? That is class 1. Lower than -0.3? That is class 0.

{"columns": ["mutant", "cat"],
 "data": [
  ["G35L", "class 1"]
]}

Next, consider the following variant.
Problem: Answer whether abundance fitness of R34A is greater than or equal to -0.3.
Solution: class 1

Numbers sourced from the Human Domainome abundance scans (Beltran et al. 2025).
